A short record of Ki observed with Carbonic anhydrase 5B, mitochondrial (Homo sapiens) follows.
Sequence (Q9Y2D0 whole entry): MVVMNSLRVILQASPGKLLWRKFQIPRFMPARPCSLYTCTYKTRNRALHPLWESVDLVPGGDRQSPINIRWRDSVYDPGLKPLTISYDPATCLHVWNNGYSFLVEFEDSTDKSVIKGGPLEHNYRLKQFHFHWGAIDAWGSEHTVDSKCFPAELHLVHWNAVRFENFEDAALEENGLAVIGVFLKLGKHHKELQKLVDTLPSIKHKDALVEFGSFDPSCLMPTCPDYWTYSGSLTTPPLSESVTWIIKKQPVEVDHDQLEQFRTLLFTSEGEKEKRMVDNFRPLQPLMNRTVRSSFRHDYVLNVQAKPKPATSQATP

molecule	measurement target	Ki / µM
N#Cc1ccc(O)cc1	Carbonic anhydrase 5B, mitochondrial (Homo sapiens)	557
Oc1ccc(O)cc1 [HYDROQUINONE]	Carbonic anhydrase 5B, mitochondrial (Homo sapiens)	12.5
Oc1ccccc1O	Carbonic anhydrase 5B, mitochondrial (Homo sapiens)	4.2
Oc1cccc(O)c1	Carbonic anhydrase 5B, mitochondrial (Homo sapiens)	7.1
CC(=O)Nc1ccc(O)cc1	Carbonic anhydrase 5B, mitochondrial (Homo sapiens)	296

---

# measurement target: Carbonic anhydrase 9 (Homo sapiens)
Ki under 70 µM gets 1.0, anything at or over 70 µM gets 0.0.

molecule	measurement target	classification
Oc1ccc(O)cc1 [HYDROQUINONE]	Carbonic anhydrase 9 (Homo sapiens)	1.0
N#Cc1ccc(O)cc1 [4-CYANOPHENOL]	Carbonic anhydrase 9 (Homo sapiens)	1.0
Oc1ccccc1O [CATECHOL]	Carbonic anhydrase 9 (Homo sapiens)	0.0
O=C(O)c1ccc(O)cc1 [PARABEN]	Carbonic anhydrase 9 (Homo sapiens)	0.0

---

pKi reference
# measurement target: Carbonic anhydrase 7 (Homo sapiens, UniProt P43166)
# Sequence (P43166 whole entry): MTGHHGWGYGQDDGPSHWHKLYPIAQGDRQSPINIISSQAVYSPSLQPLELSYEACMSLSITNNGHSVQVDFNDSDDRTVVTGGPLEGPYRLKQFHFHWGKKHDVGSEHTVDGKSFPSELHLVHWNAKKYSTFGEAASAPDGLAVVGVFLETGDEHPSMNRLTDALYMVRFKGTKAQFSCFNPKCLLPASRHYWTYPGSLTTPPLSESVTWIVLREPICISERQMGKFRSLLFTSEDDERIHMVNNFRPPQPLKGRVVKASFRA
pKi: −log10 of the molar value.

compound	measurement target	pKi
Oc1cccc(O)c1	Carbonic anhydrase 7 (Homo sapiens, UniProt P43166)	3.19
Oc1ccccc1O	Carbonic anhydrase 7 (Homo sapiens, UniProt P43166)	3.15
N#Cc1ccc(O)cc1	Carbonic anhydrase 7 (Homo sapiens, UniProt P43166)	3.11
Oc1ccc(O)cc1 [HYDROQUINONE]	Carbonic anhydrase 7 (Homo sapiens, UniProt P43166)	3.05

---

# measurement target: Carbonic anhydrase 14 (Homo sapiens, UniProt Q9ULX7)
# Sequence (Q9ULX7 whole entry): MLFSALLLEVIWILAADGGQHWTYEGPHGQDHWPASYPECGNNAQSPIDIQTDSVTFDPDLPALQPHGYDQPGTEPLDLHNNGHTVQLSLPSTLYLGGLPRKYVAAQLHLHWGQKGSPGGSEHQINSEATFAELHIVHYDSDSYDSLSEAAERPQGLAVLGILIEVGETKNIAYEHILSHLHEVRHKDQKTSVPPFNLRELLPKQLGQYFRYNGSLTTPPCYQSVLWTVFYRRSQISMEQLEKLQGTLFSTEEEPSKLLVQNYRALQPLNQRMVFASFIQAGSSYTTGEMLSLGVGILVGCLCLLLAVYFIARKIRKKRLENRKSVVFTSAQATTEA
Mark true for Ki under 30 µM, false if at or over.

compound	measurement target	classification
Oc1ccccc1O	Carbonic anhydrase 14 (Homo sapiens, UniProt Q9ULX7)	false
CC(=O)Nc1ccc(O)cc1	Carbonic anhydrase 14 (Homo sapiens, UniProt Q9ULX7)	true
Oc1cccc(O)c1	Carbonic anhydrase 14 (Homo sapiens, UniProt Q9ULX7)	true
Oc1cc(F)ccc1F	Carbonic anhydrase 14 (Homo sapiens, UniProt Q9ULX7)	false
Oc1ccc(O)cc1 [HYDROQUINONE]	Carbonic anhydrase 14 (Homo sapiens, UniProt Q9ULX7)	false

---

Listing of entries alongside the reported pKi.
# measurement target: Carbonic anhydrase 6 (Homo sapiens, UniProt P23280)
# Sequence (P23280 whole entry): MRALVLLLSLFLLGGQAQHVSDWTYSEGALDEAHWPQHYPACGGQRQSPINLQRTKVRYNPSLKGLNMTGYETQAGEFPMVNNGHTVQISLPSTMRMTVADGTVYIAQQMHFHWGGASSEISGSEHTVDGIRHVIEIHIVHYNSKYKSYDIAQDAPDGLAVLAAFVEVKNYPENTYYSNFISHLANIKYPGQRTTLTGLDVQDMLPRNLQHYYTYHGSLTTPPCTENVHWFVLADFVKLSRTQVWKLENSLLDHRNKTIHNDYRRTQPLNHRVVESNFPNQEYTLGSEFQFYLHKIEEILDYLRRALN
pKi: −log10 of the molar value.

compound	pKi
O=C(O)c1ccc(O)cc1	4.94
Oc1cccc(O)c1	3.26
Oc1ccccc1O	3.22
Oc1ccc(O)cc1 [HYDROQUINONE]	3.28
CC(=O)Nc1ccc(O)cc1	3.18

---

Reported values of Ki for individual entries
# measurement target: UniProtKB P35218
# Sequence (P35218 whole entry): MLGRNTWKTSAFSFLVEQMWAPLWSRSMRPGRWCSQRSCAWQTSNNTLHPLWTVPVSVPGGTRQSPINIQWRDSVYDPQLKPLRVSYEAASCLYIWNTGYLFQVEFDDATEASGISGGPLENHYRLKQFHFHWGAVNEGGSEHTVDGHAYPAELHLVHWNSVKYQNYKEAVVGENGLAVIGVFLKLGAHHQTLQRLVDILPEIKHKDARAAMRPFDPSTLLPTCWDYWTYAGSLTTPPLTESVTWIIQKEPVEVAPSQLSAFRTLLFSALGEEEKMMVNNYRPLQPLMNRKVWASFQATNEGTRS

compound	measurement target	Ki, µM
Oc1ccccc1O	UniProtKB P35218	55.1
Oc1ccc(O)cc1 [HYDROQUINONE]	UniProtKB P35218	14.1
CC(=O)Nc1ccc(O)cc1	UniProtKB P35218	802
N#Cc1ccc(O)cc1	UniProtKB P35218	520
Oc1cccc(O)c1	UniProtKB P35218	8.7

---

Here we list compounds with their recorded pKi when tested on Carbonic anhydrase 13 (Mus musculus, UniProt Q9D6N1).
Sequence (Q9D6N1 whole entry): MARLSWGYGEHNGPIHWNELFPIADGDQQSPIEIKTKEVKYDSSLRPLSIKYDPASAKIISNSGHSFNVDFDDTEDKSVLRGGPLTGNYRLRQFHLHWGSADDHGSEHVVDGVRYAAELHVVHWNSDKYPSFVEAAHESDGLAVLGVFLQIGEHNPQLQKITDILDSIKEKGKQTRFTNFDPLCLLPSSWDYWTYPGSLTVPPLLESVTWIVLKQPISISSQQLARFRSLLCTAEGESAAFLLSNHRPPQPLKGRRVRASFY
pKi: −log10 of the molar value.

compound	pKi
Oc1ccccc1O	4.91
Oc1cccc(O)c1	4.20
Oc1ccc(O)cc1 [HYDROQUINONE]	4.13
CC(=O)Nc1ccc(O)cc1	4.52
Oc1cc(F)ccc1F	4.16
N#Cc1ccc(O)cc1	4.35

---

# pKi per record follows
# measurement target: Carbonic anhydrase 3 (Homo sapiens)
# Sequence (P07451 whole entry): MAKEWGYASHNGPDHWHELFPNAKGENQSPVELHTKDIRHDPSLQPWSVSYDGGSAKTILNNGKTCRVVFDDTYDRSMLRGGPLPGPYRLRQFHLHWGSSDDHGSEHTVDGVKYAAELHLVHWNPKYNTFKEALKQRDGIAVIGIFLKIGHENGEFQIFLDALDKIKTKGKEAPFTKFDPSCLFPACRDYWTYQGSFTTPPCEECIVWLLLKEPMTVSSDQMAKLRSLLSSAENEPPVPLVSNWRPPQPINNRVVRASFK
pKi: −log10 of the molar value.
measured quantity: pKi

compound	endpoint value
Oc1cc(F)ccc1F	4.97
Oc1ccccc1O	4.89
Oc1cccc(O)c1	3.22
Oc1ccc(O)cc1 [HYDROQUINONE]	5.09
CC(=O)Nc1ccc(O)cc1	5.15

---

pKi: −log10 of the molar value.
This section lists pKi readings for Carbonic anhydrase 12 (Homo sapiens).

compound	pKi
CC(=O)Nc1ccc(O)cc1 [ACETAMINOPHEN]	5.39
Oc1cccc(O)c1 [RESORCINOL]	5.12
O=C(O)c1ccc(O)cc1 [PARABEN]	5.32
Oc1ccccc1O [CATECHOL]	5.05
Oc1ccc(O)cc1 [HYDROQUINONE]	5.11

---

# measurement target: Carbonic anhydrase 9 (Homo sapiens)
pKi: −log10 of the molar value.
pKi values by entry
measured quantity: pKi

compound structure string	measured quantity	endpoint value
Oc1cc(F)ccc1F	pKi	4.16
Oc1cccc(O)c1	pKi	4.16
CC(=O)Nc1ccc(O)cc1	pKi	4.15
